# Tested on: SARS-CoV-2
# Measurement protocol: microbe, parasite or virus in culture
# Protocol conditions: Severe acute respiratory syndrome coronavirus 2, Vero C1008, 48 h
pIC50: −log10 of the molar value.
Readout type: pIC50

[[record]]
molecule = "Oc1cc2c(cc1O)[C@H]1c3ccccc3CN[C@@H]1CC2 [DIHYDREXIDINE]"
cmp = "="
observed_result = 5.10

[[record]]
molecule = "CC(=O)C12OC(C)(C)OC1CC1C3CCC4=CC(=O)CCC4(C)C3CCC12C (stereo unspecified)"
cmp = "<"
observed_result = 4.70

[[record]]
molecule = "Cc1cc2cc(Oc3ccnc(Nc4cccc(CS(=O)(=O)NCCN(C)C)c4)n3)ccc2[nH]1"
cmp = "<"
observed_result = 5.00

[[record]]
molecule = "c1ccc2c(c1)CCCc1cc(NCCN3CCOCC3)nnc1-2"
cmp = "<"
observed_result = 4.70

[[record]]
molecule = "CNC(=O)[C@@H](c1ccccc1)N1CCc2cc(OC)c(OC)cc2[C@@H]1CCc1ccc(C(F)(F)F)cc1"
cmp = "="
observed_result = 4.73

[[record]]
molecule = "CN(C(=O)CN(CCO)CC(=O)N(C)C(C)(C)Cc1ccccc1)C(C)(C)Cc1ccccc1"
cmp = "="
observed_result = 4.73


---

# System: SARS-CoV-2
# Measurement protocol: microbe, parasite or virus in culture
# Type: functional, organism-based, Chlorocebus sabaeus, Vero C1008
# Protocol conditions: Severe acute respiratory syndrome coronavirus 2, Vero C1008, 48 h; read-out: IC50
pIC50: −log10 of the molar value.
Readout type: pIC50

[[record]]
compound = "CC[C@@H]([C@H](C)O)n1ncn(-c2ccc(N3CCN(c4ccc(OC[C@@H]5CO[C@@](Cn6cncn6)(c6ccc(F)cc6F)C5)cc4)CC3)cc2)c1=O [POSACONAZOLE]"
observed_result = "< 4.00"

[[record]]
compound = "CC(C)(C)NC[C@H](O)COc1ccccc1C1CCCC1 [PENBUTOLOL]"
observed_result = 4.70

[[record]]
compound = "CNCCC=C1c2ccccc2CCc2ccccc21 [NORTRIPTYLINE]"
observed_result = "< 4.00"

[[record]]
compound = "CCN(CC)CCOc1ccc(C(=C(Cl)c2ccccc2)c2ccccc2)cc1 [CLOMIPHENE]"
observed_result = "< 4.70"

[[record]]
compound = "CCOC(=O)Nc1ccc(NCc2ccc(F)cc2)nc1N [FLUPIRTINE]"
observed_result = "< 4.00"

[[record]]
compound = "CCN(CC)CCCC(C)Nc1ccnc2cc(Cl)ccc12 (configuration not stated) [CHLOROQUINE]"
observed_result = "~5.02"

[[record]]
compound = "COc1ccc2c(c1)c(CC(=O)O)c(C)n2C(=O)c1ccc(Cl)cc1 [INDOMETHACIN]"
observed_result = "< 4.00"


---

# Measurement protocol: in vitro
# Protocol conditions: chlorocebus sabaeus, Vero E6 (Vero C1008) cells, CC50
Readout type: CC50 at 48 h (µM)

[[record]]
compound = "CC1=C(/C=C/C(C)=C/C=C/C(C)=C/C(=O)Nc2ccc(O)cc2)C(C)(C)CCC1 [FENRETINIDE]"
readout_type = "CC50 at 48 h"
cmp = "="
observed_result = 5.01

[[record]]
compound = "CC(Cc1ccc(O)c(O)c1)C(C)Cc1ccc(O)c(O)c1 (configuration not stated) [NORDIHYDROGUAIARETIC ACID]"
readout_type = "CC50 at 48 h"
cmp = "="
observed_result = 37.2

[[record]]
compound = "CN1CCN(CCCN2c3ccccc3Sc3ccc(S(=O)(=O)N(C)C)cc32)CC1"
readout_type = "CC50 at 48 h"
cmp = "="
observed_result = 6.31

[[record]]
compound = "CN1CCCC(CC2c3ccccc3Sc3ccccc32)C1 (configuration not stated)"
readout_type = "CC50 at 48 h"
cmp = "="
observed_result = 10.1

[[record]]
compound = "CCCCN(CCCC)CCCOc1ccc(C(=O)c2c(CC)cc3ccccn23)cc1"
readout_type = "CC50 at 48 h"
cmp = "="
observed_result = 6.61

[[record]]
compound = "Cc1ccccc1CN1CCN(CCOC(c2ccccc2)c2ccccc2Cl)CC1 (configuration not stated)"
readout_type = "CC50 at 48 h"
cmp = "="
observed_result = 15.3

[[record]]
compound = "COc1ccc2c(c1)CCC(c1ccccc1)=C2c1ccc(OCCN2CCCC2)cc1"
readout_type = "CC50 at 48 h"
cmp = "="
observed_result = 3.85

[[record]]
compound = "COc1cc2c(cc1OC)C(c1cccc(Cl)c1)=NN=C(C)C2"
readout_type = "CC50 at 48 h"
cmp = ">"
observed_result = 100


---

CC50 at 48 h values for the compounds below.
# Measurement protocol: in vitro
# Protocol conditions: chlorocebus sabaeus, Vero E6 (Vero C1008) cells, CC50
Readout type: CC50 at 48 h

[[record]]
compound = "Cc1cc(O[C@@H](CCC(F)(F)F)c2ccc(C(=O)NCCC(=O)O)cc2)cc(C)c1-c1ccc(C(C)(C)C)cc1 [ADOMEGLIVANT]"
observed_result = "~10.4 µM"

[[record]]
compound = "CCC(C)n1ncn(-c2ccc(N3CCN(c4ccc(OCC5COC(Cn6cncn6)(c6ccc(Cl)cc6Cl)O5)cc4)CC3)cc2)c1=O (stereo not drawn) [ITRACONAZOLE]"
observed_result = "> 100 µM"

[[record]]
compound = "CN(C)C(=O)C(CCN1CCC(O)(c2ccc(Cl)cc2)CC1)(c1ccccc1)c1ccccc1 [LOPERAMIDE]"
observed_result = "~22 µM"


---

Entries and their CC50 at 48 h
# Measurement protocol: in vitro
# Protocol conditions: chlorocebus sabaeus, Vero E6 (Vero C1008) cells, pCC50
Readout type: CC50 at 48 h

[[record]]
compound = "C=C1CC[C@@H]2[C@](C)(CO)[C@H](O)CC[C@@]2(C)[C@@H]1C/C=C1/C(=O)OC[C@H]1O [ANDROGRAPHOLIDE]"
observed_result = "~21.4 µM"

[[record]]
compound = "CCCCCCC(C)(C)c1cc(O)c2c(c1)OC(C)(C)[C@@H]1CC=C(C(=O)O)C[C@@H]21 [LENABASUM]"
observed_result = "~21.4 µM"

[[record]]
compound = "COC(=O)[C@H]1[C@H]2C[C@@H]3c4[nH]c5cc(OC)ccc5c4CCN3C[C@H]2C[C@@H](OC(=O)c2cc(OC)c(OC)c(OC)c2)[C@@H]1OC [RESERPINE]"
observed_result = "~11 µM"

[[record]]
compound = "CCCCOc1cc(C(=O)NCCN(CC)CC)c2ccccc2n1 [DIBUCAINE]"
observed_result = "~39.8 µM"

[[record]]
compound = "CCOc1cc2ncc(C#N)c(Nc3ccc(OCc4ccccn4)c(Cl)c3)c2cc1NC(=O)/C=C/CN(C)C [NERATINIB]"
observed_result = "> 10 µM"


---

# Measurement protocol: in vitro
# Protocol conditions: chlorocebus sabaeus, Vero E6 (Vero C1008) cells, pCC50
Reported CC50 at 48 h values for a set of compounds
Readout type: CC50 at 48 h

[[record]]
compound = "O=C(O)CCc1nc(-c2ccccc2)c(-c2ccccc2)o1 [OXAPROZIN]"
observed_result = "> 50.1 µM"

[[record]]
compound = "CCC(C)n1ncn(-c2ccc(N3CCN(c4ccc(OC[C@H]5CO[C@](Cn6cncn6)(c6ccc(F)cc6F)O5)cc4)CC3)cc2)c1=O (stereo not given in full) [SAPERCONAZOLE]"
observed_result = "> 100 µM"

[[record]]
compound = "CCN(CC)CCCNc1cc(OC)cc2cccnc12"
observed_result = "> 100 µM"

[[record]]
compound = "CCOC(=O)Nc1ccc(NCc2ccc(F)cc2)nc1N [FLUPIRTINE]"
observed_result = "> 100 µM"

[[record]]
compound = "Cc1c(CN2CCN(c3cccc(C(F)(F)F)c3)CC2)cc(-c2ccccc2)n1NC(=O)c1ccncc1 [SUDOTERB]"
observed_result = "~14.1 µM"


---

# Measurement protocol: in vitro
# Protocol conditions: chlorocebus sabaeus, Vero E6 (Vero C1008) cells, CC50
Readout type: CC50 at 48 h

[[record]]
compound = "COC(=O)[C@H]1[C@H]2C[C@@H]3c4[nH]c5cc(OC)ccc5c4CCN3C[C@H]2C[C@@H](OC(=O)c2cc(OC)c(OC)c(OC)c2)[C@@H]1OC"
readout_type = "CC50 at 48 h"
observed_result = "~11 µM"

[[record]]
compound = "COc1ccc2cc(-c3cc(-c4cc(Cl)cc(Cl)c4)nn3[C@@H](C)c3ccc(C(=O)NCCC(=O)O)cc3)ccc2c1"
readout_type = "CC50 at 48 h"
observed_result = "~18.8 µM"

[[record]]
compound = "CC(C)(C)c1ccc(C(O)CCCN2CCC(C(O)(c3ccccc3)c3ccccc3)CC2)cc1 (centres undefined)"
readout_type = "CC50 at 48 h"
observed_result = "~5.13 µM"

[[record]]
compound = "CC(C)CN(C[C@@H](O)[C@H](Cc1ccccc1)NC(=O)O[C@H]1CO[C@H]2OCC[C@H]21)S(=O)(=O)c1ccc2nc(NC3CCN(C4CCCC4)CC3)sc2c1"
readout_type = "CC50 at 48 h"
observed_result = "~13 µM"


Origin of the recorded values: ChEMBL document CHEMBL4651402
